# Test system: HEK-293T
# experiment.summary: Multiplex assay against HEK293T
# Type: toxicity, cell-based
# test.conditions: human, 12 h, 1 µM, compound concentration 1 uM, replicate 1
Kindly supply the reported Population Normal (%) values for the records listed here.
State the answer as a number, implicitly in %.

Task item: Request the reported Population Normal (%) associated with CCCc1cc(C)[nH]c(=O)c1CNC(=O)c1cc(-c2ccc(N3CCN(C(C)C)CC3)nc2)cc2c1cnn2C(C)C
Reply: 86

Task item: What about Cc1ccc(NC(=O)Nc2cc(C(F)(F)F)ccc2F)cc1Nc1ccc2c(c1)NC(=O)/C2=C\c1ccc[nH]1 ?
Reply: 83

Task item: What about NC(=O)c1ccc2nc(-c3ccc(C4(N)CCC4)cc3)c(-c3ccccc3)n2n1 ?
Reply: 83

Task item: What about Cl.Cn1c2c(c3ccc(Cl)c(Cl)c31)C(C#N)C1(CCNCC1)NC2=O (stereo not drawn) ?
Reply: 89

Task item: What about Cl.NC[C@@H]1O[C@H](C23CC4CC(CC(C4)C2)C3)Cc2c1ccc(O)c2O ?
Reply: 88

Task item: What about CC[C@@H]1C(=O)N(C)c2cnc(Nc3ccc(C(=O)NC4CCN(C)CC4)cc3OC)nc2N1C1CCCC1 ?
Reply: 87

Task item: What about N#CCNC(=O)c1ccc(-c2ccnc(Nc3ccc(N4CCOCC4)cc3)n2)cc1 ?
Reply: 87

Task item: What about COc1cc(Nc2ccnc3ccc(Br)cc23)cc(OC)c1OC ?
Reply: 83

Task item: What about N#Cc1cccc(C(=O)Nc2cc(-c3ccccc3)nn2-c2ccccc2)c1 ?
Reply: 86

Task item: What about CCCCCNC(=N)N/N=C/c1c[nH]c2ccc(OC)cc12.O=C(O)/C=C\C(=O)O [TEGASEROD MALEATE] ?
Reply: 83

Task item: What about Cc1c(P(=S)(c2ccccc2)c2ccccc2)n2ccccc2[n+]1C/C=C/c1ccccc1.[Br-] ?
Reply: 82

Task item: What about Cc1c(Nc2ccc(S(=O)(=O)N3CCN(C)CC3)cc2F)nc2ccc(Nc3cnn(C4CC4)c3)cn2c1=O ?
Reply: 83

Task item: What about CC(Cc1ccc(O)c(O)c1)C(C)Cc1ccc(O)c(O)c1 (stereo not drawn) [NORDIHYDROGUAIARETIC ACID] ?
Reply: 83

Task item: What about CN(c1cc(C(F)(F)F)nc(OCCC(=O)O)n1)c1cccc2c1CCC2 ?
Reply: 85

Task item: What about Cc1ccc(S(=O)(=O)NC2c3ccccc3Oc3ccccc32)cc1 ?
Reply: 88

Task item: What about Cc1c(Nc2ccc(S(=O)(=O)N3CCN(C)CC3)cc2F)nc2ccc(-c3cnn(C4CC4)c3)cn2c1=O ?
Reply: 90

Task item: What about CC(C)[C@H](CO)Nc1nc(Nc2cccc(Cl)c2)c2ncn(C(C)C)c2n1 ?
Reply: 86

Task item: What about CCOC(=O)CCNc1cc(N2CCc3ccccc3CC2)nc(-c2ccccn2)n1 ?
Reply: 90

* * *

# Tested on: U2OS
# experiment.summary: Multiplex assay against U2OS
# Type: toxicity, cell-based
# test.conditions: human, 48 h, 1 µM, compound concentration 1 uM, replicate 2
measured.attribute: Population Fragmented Nuclei (%)
State the answer as a number, implicitly in %.

Task item: Lab request: please report Population Fragmented Nuclei (%) under test system U2OS for Cc1c(P(=S)(c2ccccc2)c2ccccc2)n2ccccc2[n+]1C/C=C/c1ccccc1.[Br-]
Reply: 42

Task item: What about Cl.NC[C@@H]1O[C@H](C23CC4CC(CC(C4)C2)C3)Cc2c1ccc(O)c2O ?
Reply: 11

Task item: What about CCCCCNC(=N)N/N=C/c1c[nH]c2ccc(OC)cc12.O=C(O)/C=C\C(=O)O [TEGASEROD MALEATE] ?
Reply: 10

Task item: What about CCCCN(CC)c1nc(C)nc2c1c(C)cn2-c1c(C)cc(C)cc1C.Cl ?
Reply: 8

* * *

# Tested on: Fibroblast
# experiment.summary: Incucyte cell viability with human fibroblast; also: filed as whole numbers so only -1 and 0 and 1 occur
# Format: toxicity, cell-based
# test.conditions: 24 h, 10 µM, compound concentration 10 uM, replicate number 1, timepoint 24 hours
measured.attribute: Growth Rate
Write no unit; give the number alone.

Task item: Request the reported Growth Rate associated with CN1C(=O)[C@@H](NC(=O)c2cc3ccccc3[nH]2)N=C(c2ccccc2)c2ccccc21 [DEVAZEPIDE]
Reply: 1

Task item: What about Cc1c(F)cccc1NC(=O)Nc1ccc(Cl)c(S(=O)(=O)[C@H]2CCCNC2)c1O [DANIRIXIN] ?
Reply: 1

Task item: What about CC(C)c1ccc(CC(=O)N2CCC[C@@H](c3cccc(OC(C)(C)C(=O)O)c3)C2)cc1 ?
Reply: 0

Task item: What about CC(C)C[C@H](NC(=O)N1CCCCCC1)C(=O)N[C@H](Cc1cn(C)c2ccccc12)C(=O)N[C@H](Cc1ccccn1)C(=O)O ?
Reply: 1

Task item: What about CN(C)CCCN1c2ccccc2CCc2ccccc21.Cl [IMIPRAMINE HYDROCHLORIDE] ?
Reply: 0

Task item: What about CCCCN(Cc1ccccc1)C(=O)c1ccc(S(=O)(=O)Nc2ccccc2)cc1 ?
Reply: 0

Task item: What about Cc1cc2c(cc1-c1cc(/C=C/C(=O)O)ccc1O)C(C)(C)CCC2(C)C ?
Reply: 1

Task item: What about CC(C)(N)C(=O)N[C@H](COCc1ccccc1)C(=O)N1CCC2(CC1)CN(S(C)(=O)=O)c1ccccc12.CS(=O)(=O)O [IBUTAMOREN MESYLATE] ?
Reply: 0

Task item: What about C/C(=N\NC(=O)[C@@H]1C(=O)NC[C@H]1c1ccccc1)c1cccc(Br)c1 ?
Reply: 1

Task item: What about COc1ccccc1-c1cc(Nc2cccc(CS(N)(=O)=O)c2)ncn1 ?
Reply: 0

Task item: What about O=C(N1CCS(=O)(=O)CC1)N1C[C@H](c2ccc(OC(F)(F)F)cc2)C[C@H](c2nc(C3CC3)no2)C1 [BAY-386] ?
Reply: 1

Task item: What about CCC(=O)NC1Cc2ccccc2C(c2ccccc2)C1 (configuration not stated) ?
Reply: 0

Task item: What about C[C@H](NC(=O)Nc1cc2[nH]ncc2c(CO)n1)c1ccccn1 [ERKi-NC] ?
Reply: 1

Task item: What about CN(c1cc(C(F)(F)F)nc(OCCC(=O)O)n1)c1cccc2c1CCC2 ?
Reply: 0

Task item: What about CC1=C2C[C@H]3[C@@H](CC=C4C[C@@H](O)CC[C@@]43C)[C@@H]2CC[C@]12O[C@@H]1C[C@H](C)CN[C@H]1[C@H]2C [CYCLOPAMINE] ?
Reply: 0

Task item: What about NC(=O)[C@@H]1CCCN1C(=O)[C@H](Cc1cnc[nH]1)NC(=O)[C@@H]1CCC(=O)N1 [PROTIRELIN] ?
Reply: 1

Task item: What about CCOC(=O)CCNc1cc(N2CCc3ccccc3CC2)nc(-c2ccccn2)n1 ?
Reply: 1

* * *

# System: U2OS
# experiment.summary: Multiplex assay against U2OS
# Format: toxicity, cell-based
# test.conditions: human, 24 h, 10 µM, compound concentration 10 uM, replicate 1
Kindly supply the reported Population Tubulin-Different-Phenotype (%) values for the records listed here.
State the answer as a number, implicitly in %.

Task item: Request the reported Population Tubulin-Different-Phenotype (%) associated with Cl.Cn1c2c(c3ccc(Cl)c(Cl)c31)C(C#N)C1(CCNCC1)NC2=O (centres undefined)
Reply: 92

Task item: What about CN1C(=O)[C@@H](NC(=O)c2cc3ccccc3[nH]2)N=C(c2ccccc2)c2ccccc21 [DEVAZEPIDE] ?
Reply: 47

Task item: What about COc1ccccc1-c1cc(Nc2cccc(CS(N)(=O)=O)c2)ncn1 ?
Reply: 22

Task item: What about CCOC(=O)CCNc1cc(N2CCc3ccccc3CC2)nc(-c2ccccn2)n1 ?
Reply: 13

Task item: What about CC[C@@H]1C(=O)N(C)c2cnc(Nc3ccc(C(=O)NC4CCN(C)CC4)cc3OC)nc2N1C1CCCC1 ?
Reply: 99

Task item: What about CCCCN(CC)c1nc(C)nc2c1c(C)cn2-c1c(C)cc(C)cc1C.Cl ?
Reply: 26

Task item: What about Cc1ccc(NC(=O)Nc2cc(C(F)(F)F)ccc2F)cc1Nc1ccc2c(c1)NC(=O)/C2=C\c1ccc[nH]1 ?
Reply: 31

Task item: What about c1ccc(-c2oc3ncnc(NC[C@@H]4CCCO4)c3c2-c2ccccc2)cc1 ?
Reply: 95

Task item: What about Cc1c(P(=S)(c2ccccc2)c2ccccc2)n2ccccc2[n+]1C/C=C/c1ccccc1.[Br-] ?
Reply: 100

* * *

# Test system: HEK-293T
# experiment.summary: Multiplex assay against HEK293T
# Assay type: toxicity, cell-based
# test.conditions: human, 48 h, 1 µM, compound concentration 1 uM, replicate 2
Kindly supply the reported Population Healthy Nuclei (%) values for the records listed here.
State the answer as a number, implicitly in %.

Task item: Lab request: please report Population Healthy Nuclei (%) under test system HEK-293T for C[C@@H](Oc1cc(-n2cnc3ccc(CN4CCN(C)CC4)cc32)sc1C(N)=O)c1ccccc1C(F)(F)F
Reply: 60

Task item: What about N#Cc1cccc(C(=O)Nc2cc(-c3ccccc3)nn2-c2ccccc2)c1 ?
Reply: 77

Task item: What about CC(C)C[C@H](NC(=O)[C@H](Cc1ccccc1)NC(=O)CNC(=O)CNC(=O)[C@@H](N)Cc1ccc(O)cc1)C(=O)O ?
Reply: 82

Task item: What about CN1C(=O)[C@@H](NC(=O)c2cc3ccccc3[nH]2)N=C(c2ccccc2)c2ccccc21 [DEVAZEPIDE] ?
Reply: 74
